# method_summary: Drug uptake in anesthetized cynomolgus monkey brain frontal lobe after 215 mins postinjection
# Type: ADME, organism-based, Macaca fascicularis
# protocol_conditions: in vivo
measured_attribute: Drug uptake

O=C(OCCC[18F])C1C2CCC(CC1c1cccc(/C=C\Br)c1)N2 (stereo not given)    2.03
O=C(OCC[18F])C1C2CCC(CC1c1cccc(/C=C\I)c1)N2 (stereo not given)    1.51
O=C(OCCC[18F])C1C2CCC(CC1c1cccc(/C=C\I)c1)N2 (stereo not given)    1.99
O=C(OCC[18F])C1C2CCC(CC1c1ccc(/C=C\I)cc1)N2 (stereo not given)    1.6

// below: Drug uptake requested for another molecule
Form field: reported Drug uptake of O=C(OCC[18F])C1C2CCC(CC1c1cccc(/C=C\Br)c1)N2 (stereo not given)
1.97

* * *

For each of the compounds below, state its Drug uptake.
# Tested on: Pons
# method_summary: Drug uptake in anesthetized cynomolgus monkey brain pons after 9.5 mins postinjection
# Format: ADME, organism-based, Macaca fascicularis
# protocol_conditions: in vivo
Give bare numbers.

Report Drug uptake for every entry below.
1. O=C(OCC[18F])C1C2CCC(CC1c1ccc(/C=C\I)cc1)N2 (stereo not given)
2. O=C(OCC[18F])C1C2CCC(CC1c1cccc(/C=C\I)c1)N2 (stereo not given)
3. O=C(OCCC[18F])C1C2CCC(CC1c1cccc(/C=C\Br)c1)N2 (stereo not given)
4. O=C(OCC[18F])C1C2CCC(CC1c1cccc(/C=C\Br)c1)N2 (stereo not given)
5. O=C(OCCC[18F])C1C2CCC(CC1c1cccc(/C=C\I)c1)N2 (stereo not given)

1.62
2.4
4.14
3.15
3.47

* * *

# Tested on: Midbrain
# method_summary: Drug uptake in anesthetized cynomolgus monkey brain midbrain after 2.5 mins postinjection
# Format: ADME, organism-based, Macaca fascicularis
# Design: unit not given here
# protocol_conditions: in vivo
Kindly apply the following: Fulfilled if Drug uptake is less than 0.5, Not fulfilled in every other case.

These recorded examples may help you get a feel for the data.
O=C(OCC[18F])C1C2CCC(CC1c1ccc(/C=C\I)cc1)N2 (stereo not given)    Fulfilled
O=C(OCC[18F])C1C2CCC(CC1c1cccc(/C=C\I)c1)N2 (stereo not given)    Not fulfilled
O=C(OCCC[18F])C1C2CCC(CC1c1cccc(/C=C\Br)c1)N2 (stereo not given)    Not fulfilled
O=C(OCCC[18F])C1C2CCC(CC1c1cccc(/C=C\I)c1)N2 (stereo not given)    Not fulfilled

Is Drug uptake strictly under 0.5 for the entry O=C(OCC[18F])C1C2CCC(CC1c1cccc(/C=C\Br)c1)N2 (stereo not given) ?
Not fulfilled

* * *

Could you please report measured Drug uptake for the items listed next?
# System: Medulla
# method_summary: Drug uptake in anesthetized cynomolgus monkey brain medulla after 85 mins postinjection
# Format: ADME, organism-based, Macaca fascicularis
# protocol_conditions: in vivo
Give bare numbers.

O=C(OCC[18F])C1C2CCC(CC1c1cccc(/C=C\Br)c1)N2 (stereo not given)    4.73
O=C(OCCC[18F])C1C2CCC(CC1c1cccc(/C=C\Br)c1)N2 (stereo not given)    5.41
O=C(OCCC[18F])C1C2CCC(CC1c1cccc(/C=C\I)c1)N2 (stereo not given)    4.79
O=C(OCC[18F])C1C2CCC(CC1c1ccc(/C=C\I)cc1)N2 (stereo not given)    3.91

Then there is this compound:
Could you tell me which Drug uptake is on file for O=C(OCC[18F])C1C2CCC(CC1c1cccc(/C=C\I)c1)N2 (stereo not given) ?
3.75

* * *

For each of the compounds below, state its Drug uptake.
# method_summary: Drug uptake in anesthetized cynomolgus monkey brain cerebellum after 0.5 mins postinjection
# Format: ADME, organism-based, Macaca fascicularis
# protocol_conditions: in vivo
Numbers only.

Here is how some compounds turned out for Drug uptake.
O=C(OCC[18F])C1C2CCC(CC1c1cccc(/C=C\I)c1)N2 (stereo not given)    0
O=C(OCCC[18F])C1C2CCC(CC1c1cccc(/C=C\Br)c1)N2 (stereo not given)    0.01
O=C(OCC[18F])C1C2CCC(CC1c1cccc(/C=C\Br)c1)N2 (stereo not given)    0

Provide reported Drug uptake for each item, in the same order as listed.
1. O=C(OCCC[18F])C1C2CCC(CC1c1cccc(/C=C\I)c1)N2 (stereo not given)
2. O=C(OCC[18F])C1C2CCC(CC1c1ccc(/C=C\I)cc1)N2 (stereo not given)

0.01
0

* * *

# Test system: Midbrain
# method_summary: Drug uptake in anesthetized cynomolgus monkey brain midbrain after 12.5 mins postinjection
# Type: ADME, organism-based, Macaca fascicularis
# Design: unit not given here
# protocol_conditions: in vivo
Could you please report measured Drug uptake for the items listed next?
Numbers only.

Below: 4 compounds and their reported Drug uptake.
O=C(OCCC[18F])C1C2CCC(CC1c1cccc(/C=C\I)c1)N2 (stereo not given)    4.11
O=C(OCC[18F])C1C2CCC(CC1c1cccc(/C=C\Br)c1)N2 (stereo not given)    3.83
O=C(OCCC[18F])C1C2CCC(CC1c1cccc(/C=C\Br)c1)N2 (stereo not given)    5.24
O=C(OCC[18F])C1C2CCC(CC1c1ccc(/C=C\I)cc1)N2 (stereo not given)    2.38

Lab note: next compound to report on.
Form field - read-out: Drug uptake; system: Midbrain; submitted item: O=C(OCC[18F])C1C2CCC(CC1c1cccc(/C=C\I)c1)N2 (stereo not given)
3.95

* * *

# System: Putamen
# method_summary: Drug uptake in anesthetized cynomolgus monkey brain putamen after 85 mins postinjection
# Format: ADME, organism-based, Macaca fascicularis
# Set-up: unit not given here
# protocol_conditions: in vivo
Record form. Attribute: Drug uptake. Fill in for each entry.
Answers are plain numbers.

Consider the following illustrative entries.
O=C(OCC[18F])C1C2CCC(CC1c1ccc(/C=C\I)cc1)N2 (stereo not given)    4.32
O=C(OCCC[18F])C1C2CCC(CC1c1cccc(/C=C\Br)c1)N2 (stereo not given)    5.54
O=C(OCCC[18F])C1C2CCC(CC1c1cccc(/C=C\I)c1)N2 (stereo not given)    4.82
O=C(OCC[18F])C1C2CCC(CC1c1cccc(/C=C\Br)c1)N2 (stereo not given)    4.94

Next item in the queue.
Which Drug uptake is listed for O=C(OCC[18F])C1C2CCC(CC1c1cccc(/C=C\I)c1)N2 (stereo not given) ?
4.16

* * *

# Tested on: Thalamus
# method_summary: Drug uptake in anesthetized cynomolgus monkey brain thalamus after 4.5 mins postinjection
# Assay type: ADME, organism-based, Macaca fascicularis
# Design: unit not given here
# protocol_conditions: in vivo, 0.075 h
measured_attribute: Drug uptake

Sample records with Drug uptake:
O=C(OCC[18F])C1C2CCC(CC1c1cccc(/C=C\Br)c1)N2 (stereo not given)    1.44
O=C(OCC[18F])C1C2CCC(CC1c1cccc(/C=C\I)c1)N2 (stereo not given)    1.57
O=C(OCCC[18F])C1C2CCC(CC1c1cccc(/C=C\I)c1)N2 (stereo not given)    2.07
O=C(OCC[18F])C1C2CCC(CC1c1ccc(/C=C\I)cc1)N2 (stereo not given)    1.21

Next compound, please.
Checklist item: Drug uptake tested on Thalamus, entry O=C(OCCC[18F])C1C2CCC(CC1c1cccc(/C=C\Br)c1)N2 (stereo not given) , value?
2.48

* * *

# Tested on: Pons
# method_summary: Drug uptake in anesthetized cynomolgus monkey brain pons after 235 mins postinjection
# Format: ADME, organism-based, Macaca fascicularis
# protocol_conditions: in vivo
measured_attribute: Drug uptake
Give bare numbers.

Some solved cases for reference:
O=C(OCC[18F])C1C2CCC(CC1c1cccc(/C=C\I)c1)N2 (stereo not given)    1.97
O=C(OCCC[18F])C1C2CCC(CC1c1cccc(/C=C\I)c1)N2 (stereo not given)    3.31
O=C(OCCC[18F])C1C2CCC(CC1c1cccc(/C=C\Br)c1)N2 (stereo not given)    3.26
O=C(OCC[18F])C1C2CCC(CC1c1ccc(/C=C\I)cc1)N2 (stereo not given)    3.06

Alright, here's another molecule for you.
Which measured Drug uptake value corresponds to O=C(OCC[18F])C1C2CCC(CC1c1cccc(/C=C\Br)c1)N2 (stereo not given) ?
3.08

* * *

# method_summary: Drug uptake in anesthetized cynomolgus monkey brain cerebellum after 1.5 mins postinjection
# Type: ADME, organism-based, Macaca fascicularis
# protocol_conditions: in vivo, 0.025 h
measured_attribute: Drug uptake
Answers are plain numbers.

O=C(OCC[18F])C1C2CCC(CC1c1ccc(/C=C\I)cc1)N2 (stereo not given)    0.1
O=C(OCCC[18F])C1C2CCC(CC1c1cccc(/C=C\I)c1)N2 (stereo not given)    0.27
O=C(OCCC[18F])C1C2CCC(CC1c1cccc(/C=C\Br)c1)N2 (stereo not given)    0.48
O=C(OCC[18F])C1C2CCC(CC1c1cccc(/C=C\Br)c1)N2 (stereo not given)    0.06

Next compound, Drug uptake to be filled in.
So what does the record say about Drug uptake for O=C(OCC[18F])C1C2CCC(CC1c1cccc(/C=C\I)c1)N2 (stereo not given) ?
0.11
